system: panel of 4 experts; experiment: Sensory evaluation of strength of mouth-coating feel in mayonnaise (Examples 1, 5, 6); type: in vivo; conditions: compound (I) 10 weight ppb, β-caryophyllene oxide 500 weight ppb
ASSAY_READOUT: strength of mouth-coating feel, two components compound (I) and β-caryophyllene oxide
Answer field: number only, no words.

Value wanted: strength of mouth-coating feel, two components compound (I) and β-caryophyllene oxide (panel of 4 experts) of entry O=C1CCCO1 [γ-butyrolactone]
3.2

Continuing:
Entry CCCCCCCC1CCCC(=O)O1 (stereo not drawn) [5-dodecanolide] , system panel of 4 experts: what strength of mouth-coating feel, two components compound (I) and β-caryophyllene oxide was measured?
3.2

Tell me reported strength of mouth-coating feel, two components compound (I) and β-caryophyllene oxide for CC1OCCC1=O (stereo not drawn) [2-methyltetrahydrofuran-3-one] , tested with panel of 4 experts.
3.2

What measured strength of mouth-coating feel, two components compound (I) and β-caryophyllene oxide is associated with CC1=C(O)C(=O)OC1C (stereo not drawn) on panel of 4 experts?
2.9

Recall the recorded strength of mouth-coating feel, two components compound (I) and β-caryophyllene oxide for CC1(C)[C@@H]2CC[C@@]1(C)C(=O)C2 [D-camphor] with panel of 4 experts and state it.
3.1

Give strength of mouth-coating feel, two components compound (I) and β-caryophyllene oxide (panel of 4 experts) of the following compound: CC1=C(O)C(=O)CC1 [cyclotene]
3.2

API: value(readout=strength of mouth-coating feel, two components compound (I) and β-caryophyllene oxide, system=panel of 4 experts) for record CC1CCCC(=O)C1=O (stereo not drawn) [3-methyl-1,2-cyclohexanedione]
3.0

Notebook entry, panel of 4 experts assay: strength of mouth-coating feel, two components compound (I) and β-caryophyllene oxide of CC1=CCC(=O)O1 [α-angelicalactone] = ?
2.9

Under panel of 4 experts: strength of mouth-coating feel, two components compound (I) and β-caryophyllene oxide value of Cc1occc(=O)c1O [maltol] ?
3.0
